Tested on: UO-31 renal
protocol.text: NCI tumour cell line growth inhibition, 48 h
reported.property: GI50

{"compound": "CC(CNC(Cc1ccccc1)c1ccccc1)NC(Cc1ccccc1)c1ccccc1 (centres undefined)", "GI50": "1.87 µM"}
{"compound": "CN(C)c1ccc2cc(-c3ccccc3F)c(N)nc2c1", "GI50": "3.16 µM"}
{"compound": "C[C@H]1[C@H](C)CC[C@]2(C(=O)O)CC[C@]3(C)C(=CC[C@@H]4[C@@]5(C)C/C(=C/c6cccnc6)[C@H](O)C(C)(C)[C@@H]5CC[C@]43C)[C@H]12", "GI50": "12.5 µM"}
{"compound": "C=C1CC[C@@H]2[C@](C)(COC(C)=O)[C@H](OC(C)=O)CC[C@@]2(C)[C@@H]1CC(Nc1ccc(S(=O)(=O)Nc2nccc(C)n2)cc1)C1=CCOC1=O (some centres undefined)", "GI50": "2.91 µM"}
{"compound": "COc1c(N2CCN(CN3C(=O)C(=Nc4ccc(S(=O)(=O)Nc5ncccn5)cc4)c4ccccc43)C(C)C2)c(F)cc2c(=O)c(C(=O)O)cn(C3CC3)c12 (centres undefined)", "GI50": "40.1 µM"}
{"compound": "NC(C(=O)[O-])C(=O)[O-].NC1CCCCC1N.[Pt+4]", "GI50": "52.7 µM"}
{"compound": "CCCCN(Cc1ccc(F)cc1)c1ccc(CO)c(Cl)c1", "GI50": "10.6 µM"}
{"compound": "Cc1nc2sc(C(=O)Nc3ccccc3)c(N)c2cc1C(=O)/C=C/c1ccccc1", "GI50": "1.54 µM"}

Here is another compound to look at.
Prompt line: Checklist item: GI50 tested on UO-31 renal, entry Fc1ccc2[nH]c3c(NCCCN4CCOCC4)ncnc3c2c1 , value?
Response line: 33 µM

* * *

System: HL-60(TB) leukemia
protocol.text: NCI tumour cell line growth inhibition, 48 h
reported.property: TGI (µM)
Express your answer in µM, writing the number without its unit.

Example compounds with recorded TGI:
{"compound": "Cc1ccc2c(n1)C(=O)c1ccccc1C2=O", "TGI / µM": 45.7}
{"compound": "OC1COC(n2c3ccc(Br)cc3c3ccc4c5ccccc5[nH]c4c32)C(O)C1O (stereo unspecified)", "TGI / µM": 8.75}

Here is another compound to look at.
Prompt line: Dear colleague, I am looking for the recorded TGI of the following compound: Cc1ccc(N=C2C(=O)C3=C(OC(C)(C)CC3)c3ccccc32)cc1
Response line: 3.21

* * *

System: COLO 205 colon
protocol.text: NCI tumour cell line growth inhibition, 48 h; in the data active = GI50 below about 0.43 µM; inactive = the rest
Response enum: Yes for active, No for inactive

{"compound": "CC1OC2CC(=O)OC2C2=C1C(=O)c1c(O)c3c(c(O)c1C2=O)C1CC(O)C3(O)C(C)O1 (centres undefined)", "class": "Yes"}
{"compound": "C=C1CC[C@@H]2[C@](C)(COC(C)=O)[C@H](OC(C)=O)CC[C@@]2(C)[C@@H]1CC(Nc1ccc(S(=O)(=O)Nc2nccc(C)n2)cc1)C1=CCOC1=O (some centres undefined)", "class": "No"}

Prompt line: Answer briefly: the call reported for Fc1ccc2[nH]c3c(NCCCN4CCOCC4)ncnc3c2c1 in this assay.
Response line: No

Prompt line: // next record COc1cc(-c2cn(-c3ccc(Cl)cc3)c(C)c2C(=O)C(F)(F)F)cc(OC)c1OC
Response line: No

* * *

Tested on: HOP-92 NSCLC
protocol.text: NCI tumour cell line growth inhibition, 48 h
reported.property: TGI (µM)
Express your answer in µM, writing the number without its unit.

Example molecules with recorded TGI:
{"molecule.smiles": "Cc1nc2sc(C(=O)Nc3ccccc3)c(N)c2cc1C(=O)/C=C/c1ccccc1", "system": "HOP-92 NSCLC", "unit": "µM", "numeric.value": 7.07}
{"molecule.smiles": "C=CC[C@H]1[C@H](O[Si](C)(C)C(C)(C)C)C=CC(=O)[C@@H]1CC(=O)N(Cc1ccccc1)Cc1ccccc1", "system": "HOP-92 NSCLC", "unit": "µM", "numeric.value": 8.51}
{"molecule.smiles": "COc1cc(CNc2ccc(C(C)C)cc2)cc(OC)c1OC", "system": "HOP-92 NSCLC", "unit": "µM", "numeric.value": 50.2}

Here is another molecule to look at.
Prompt line: Checklist item: TGI tested on HOP-92 NSCLC, entry CC[C@@H](/C=C\CCC1(C[C@H](O)CCC=C(C)C)OCCO1)O[Si](C(C)C)(C(C)C)C(C)C , value?
Response line: 66.8

* * *

Test system: A549 NSCLC
protocol.text: NCI tumour cell line growth inhibition, 48 h
reported.property: TGI

Example compounds with recorded TGI:
{"compound": "CN=S(=O)(c1ccccc1)c1ccccc1", "system": "A549 NSCLC", "TGI": "> 100 µM"}
{"compound": "CCOC(=O)CCC(NC(=O)c1ccc(N2CCN(c3c(C)nc(N)nc3N)CC2)cc1)C(=O)OCC (stereo not given)", "system": "A549 NSCLC", "TGI": "> 100 µM"}
{"compound": "COc1ccc(NC(=O)/C(=C/c2ccc(N(CCC#N)CCC#N)cc2)NC(=O)c2cc([N+](=O)[O-])ccc2Cl)cc1", "system": "A549 NSCLC", "TGI": "89.7 µM"}

Prompt line: Dear colleague, I am looking for the recorded TGI of the following compound: COc1cccc(-c2cc(=O)c3c(C)ccnc3[nH]2)c1
Response line: > 100 µM

Prompt line: // next record Fc1cccc(COc2ccc(Nc3ncnc4cc(-c5ccc[nH]5)sc34)cc2Cl)c1
Response line: 4.8 µM

Prompt line: // next record CCCCN(Cc1ccc(F)cc1)c1ccc(CO)c(Cl)c1
Response line: 21.6 µM

Prompt line: // next record CCOc1cc(NC(C)=O)ccc1C(=O)NN1C(=O)/C(=C/c2cc(OC)c(OC)c(OC)c2)N=C1c1ccccc1
Response line: > 100 µM

Prompt line: // next record CC(C)C1CC(O)O[C@@H]([C@@H](C)[C@H]2CC(=O)[C@@H]3[C@@H]4[C@@H](O)[C@H](O)[C@H]5[C@@H](O)[C@H](O)CC[C@]5(C)[C@H]4CC[C@]23C)C1 (stereo not given in full)
Response line: > 100 µM

Prompt line: // next record COc1ccc(O)c(C#N)c1C#N
Response line: > 100 µM

Prompt line: // next record NCc1ccc(C(=O)O)cc1
Response line: > 100 µM

* * *

Catalogue of TGI values
Test system: HCT-116 colon
protocol.text: NCI tumour cell line growth inhibition, 48 h

Example compounds with recorded TGI:
{"compound": "N#C/C(=C\\c1cccc(O)c1)C(N)=O", "result": "> 100 µM"}
{"compound": "C[Si](C)(OCCS(=O)(=O)O)C1S(=O)(=O)OCCOS1(=O)=O", "result": "> 100 µM"}
{"compound": "O=C1CC[C@@H](S(=O)(=O)c2ccccc2)[C@@H](/C=C/c2ccccc2)O1", "result": "> 100 µM"}
{"compound": "Cc1cc(=O)oc2cc3c(cc12)Oc1ccccc1O3", "result": "> 100 µM"}
{"compound": "S=c1[nH]c(=S)c2cc(Sc3ccc4[nH]c(=S)[nH]c(=S)c4c3)ccc2[nH]1", "result": "> 100 µM"}

Prompt line: Checklist item: TGI tested on HCT-116 colon, entry Clc1ccc(C2NN=C3c4ccccc4OCC32)cc1 (stereo unspecified) , value?
Response line: > 36.4 µM

Prompt line: // next record C=C(C)C(=O)O[C@H]1[C@H]2[C@H](OC(=O)[C@H]2C)[C@H](O)[C@@H](C)[C@@H]2C=CC(=O)[C@]21C
Response line: 4.6 µM

Prompt line: // next record COc1ccc(CCNC(=O)Cc2cc(OC)c(OC)cc2CO)cc1OC
Response line: > 100 µM

* * *

System: HOP-92 NSCLC
protocol.text: NCI tumour cell line growth inhibition, 48 h
reported.property: TGI

{"compound": "O=C1/C(=C/c2ccc(O)cc2)COc2ccc(-c3ccccc3)cc21", "system": "HOP-92 NSCLC", "TGI": "31 µM"}

Prompt line: Dear colleague, I am looking for the recorded TGI of the following compound: O=S1C2=C(Cc3ccccc3)C(Cc3ccccc3)=C1CCc1cccc(c1)CC2
Response line: 26.4 µM

Prompt line: // next record Cc1cccc(C(C)C)c1NC(=O)C(=O)CC(=O)c1c(C)n([O-])c2ccccc2[n+]1=O
Response line: > 100 µM

Prompt line: // next record CN=S(=O)(c1ccccc1)c1ccccc1
Response line: > 100 µM

* * *

Test system: RPMI-8226 leukemia
protocol.text: NCI tumour cell line growth inhibition, 48 h; in the data active = GI50 below about 0.43 µM; inactive = the rest
Response enum: YES for active, NO for inactive

Prompt line: Answer briefly: the call reported for O=C1/C(=C/c2ccc(O)cc2)COc2ccc(-c3ccccc3)cc21 in this assay.
Response line: NO

Prompt line: // next record Cn1ccnc1C(=O)/C=C/c1ccc(CC(=O)Nc2ccccc2)cc1
Response line: NO

Prompt line: // next record COC(=O)CNC(=O)[C@@H](OC)[C@@H]1Cc2cc3cc(OC4CC(OC5CC(O)C(O)C(C)O5)C(O)C(C)O4)c(C)c(O)c3c(O)c2C(=O)[C@H]1OC1CC(OC2CC(OC3CC(C)(O)C(O)C(C)O3)C(O)C(C)O2)C(O)C(C)O1 (stereo partly drawn)
Response line: YES

Data provenance: PubChem BioAssay (NCI)
